# Test system: A549
# PROCEDURE DETAILS: Growth inhibition of human A549 cells after 48 hrs by sulforhodamine B assay
# Assay type: functional, cell-based
# CONDITION LABEL: A549, 48 h
Give measured IC50 for each item. Keep answers brief.
Please report the result as a number followed by the unit.

RECORD SMILES: CN(C)CCCOc1ccc(-c2nc3ccc(OCCCN(C)C)cc3c3c2-c2ccc(OCCCN(C)C)cc2C3=O)cc1
METRIC: IC50
RESULT: 680 nM

We next turn to a different molecule, shown below.
Given the molecule COc1ccc2c(c1)/C(=N\OCCCN)c1c-2c(N2CCNCC2)nc2ccccc12 , what is its reported IC50? 640 nM

Source of measurements: ChEMBL document CHEMBL2046306
